- Tested on: AMPA-kainate receptors
- Protocol summary: Patch-clamp (whole-cell voltage-clamp) recording of kainate-evoked currents in primary cultures of cortical neurons
- Assay type: cell-based
- Condition: potentiation of currents induced by Kainate, rat cortical neurons; calculated from dose/response data of Figure 1
Assay metric: EC50 (nM)
Hi! Could you send only the number? It should be in nM, unit omitted.

Query block: // EC50 lookup, key: CC1Nc2c(-c3ccoc3)cc(Cl)cc2S(=O)(=O)N1 (stereo not shown) [(1)]
Result block: 1100
